Ref: the supplement of paper PMC9170038

Hi there, I'd appreciate the recorded apparent KD of MS2 coat protein for every entry that follows.
Test system: MS2 coat protein
experiment-notes: apparent KD of MS2 coat protein; designed switch direction (-1 OFF switch, 1 ON switch): -1; higher = weaker reporter binding
condition-summary: input ligand: microRNA oligo, concentration not stated
Record the value in nM, omitting the unit from your answer.

Ask: Specify apparent KD of MS2 coat protein for AAGAUGCGGAUAGGAUAUGGAGAGAAAGAAAGACCAGAAGGAUUGGUCAUAUAACAUGAGGAUCACCCAUGUAUAUGUUGUGAA [AK ExNG1-3.2] (Eterna round: R96, puzzle: Exclusion NG 1) and stop.
Result: 13

Ask: Specify apparent KD of MS2 coat protein for AGCUGUGGCCGAGGAUAUCUAUCUCAUAAAACCGAAAUAUAAUCGGACAUGAGGAUCACCCAUGUAGAGAAGGCGGUCUCAGCA [Eli eng2 - 095] (Eterna round: R96, puzzle: Exclusion NG 2) and stop.
Result: 20.1

Ask: Specify apparent KD of MS2 coat protein for GCGCGGCGUGUAGGAUAUGCGCGCGGGUCGCGCGCAGAAGGACAUGAGGAUCACCCAUGUGGCGCGCUUGGCGCGCCGCCGCGC [-48, -45 kcal and 14% A] (Eterna round: R96, puzzle: Exclusion NG 1) and stop.
Result: 9.64

Ask: Specify apparent KD of MS2 coat protein for CUAAAUCAUGUAGGAUAUGCGUGGCAAAGCUAUGCAGAAGGACAUGAGGAUCACCCAUGUCAUUCCGUCUGGAGACAGACGGGA [Mat - Exclusion NG 1 - Mod of JL - D54] (Eterna round: R96, puzzle: Exclusion NG 1) and stop.
Result: 20.7

Ask: Specify apparent KD of MS2 coat protein for CGGUGCUUGUGGAAACAUGAGGAUCACCCAUGUUGAGUUAGCGAGGAUAUCGGUAACACAUGUCACGAGAAGGCGCGAACCAGA [Ex NG3 #33] (Eterna round: R96, puzzle: Exclusion NG 3) and stop.
Result: 18.1
